Hello, the source for this data is ChEMBL document CHEMBL1201862, in case you need it.

For each record, write down the corresponding GI50.
Test system: NCI-H522
Method description: NCI tumour cell line growth inhibition, 48 h
The source made the active and inactive calls. No stated cut-off is given here; in the data, active = GI50 up to about 1.1 µM and inactive = higher.

Worked examples, 4 molecules total:
- Molecule: "COC(=O)CCC(NC(=S)N/N=C(\\C)c1nccs1)C(=O)OC (stereo not given)"
  Test system: "NCI-H522"
  GI50: "26.4 µM (inactive)"
- Molecule: "COc1ccc(C(=O)C(C(=O)C(=O)NC2C3CC4CC(C3)CC2C4)c2ccc(OC)cc2)cc1 (stereo not given)"
  Test system: "NCI-H522"
  GI50: "> 100 µM (inactive)"
- Molecule: "CN(C)c1nc(-c2ccccc2)c(C(=O)c2c[nH]c3ccccc23)s1"
  Test system: "NCI-H522"
  GI50: "2.76 µM (inactive)"
- Molecule: "O=C1C(Cl)C(c2ccccc2Cl)N1n1cnc2ccccc2c1=O (stereo not given)"
  Test system: "NCI-H522"
  GI50: "25.8 µM (inactive)"

Could you now consider this next molecule?
Reported GI50 for NCI-H522, given CC(=O)[C@H]1CC[C@@H]2[C@]1(C)CC=C1[C@]23C=C[C@]2(C[C@@H](O)CC[C@]12C)C(C(=O)O)C3C(=O)O (stereo not given in full) ?
> 100 µM (inactive)
